System: c-Src;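 further: 11-residue human phosphosite peptides and single-mutation variants displayed on the E. coli surface, counted by deep sequencing, each peptide's frequency after selection divided by its frequency in the unselected input library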;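 further: frequency after pTyr selection over input frequency; kinase dosed for 20-30% of maximal phosphorylation in three min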
Assay: phosphorylation enrichment, bacterial display (enrichment ratio); higher = better substrate or ligand; peptides without Tyr show the background
QUANTITY MEASURED: phosphorylation enrichment
Returns: the value as a bare number; no unit string appended.

In the examples that follow, each entry is paired with its recorded phosphorylation enrichment.
SEQUENCE CODE	SYSTEM	phosphorylation enrichment
RLLRGHDQFAF [HLA-B_Y137_YF]	c-Src	0.505
PSARTYCFKQE [KLHDC9_Y175_YF]	c-Src	0.494
KSVEEYANCHL [TF_Y593_P589S]	c-Src	0.408

Tell me the measured phosphorylation enrichment of MAFDRYVAICA [OR52J3_Y125_V128I] , please.
0.394

Query: phosphorylation enrichment; subject: RRGMPYGGHGD [TGM1_Y312_R315H]
0.434

Form field: reported phosphorylation enrichment of DPLLTHRFPPK [LMNA_Y481_Y481H]
0.406

Item EVKEAYMGNVL [ACAT1_Y90] has what recorded phosphorylation enrichment?
0.402

Fill in: phosphorylation enrichment of ETKKQYDSFTF [TMED3_Y85_YF] is ___
0.564

Reported phosphorylation enrichment, sequence SFSGEYGSGGG [ZG16_Y30_G32S_YF] : ____
0.512

Fill in the blank: the reported phosphorylation enrichment of FTDGQYWIRGR [ACSF3_Y466_K462T] is ____.
0.588

Suppose we examine the sequence KGYRGYSYDDI [TMEM230_Y110] ; what phosphorylation enrichment value has been reported?
0.434

Dear colleague, I am looking for the recorded phosphorylation enrichment of the following sequence: GGDVIYKGFED [NFU1_Y194]
2.75
